# System: SARS-CoV-2
# setupConditions: listed as pipendoxifene
endpointLabel: pEC50
// scale note: pEC50 = -log10(conc_M); give the bare number

The measured pEC50 associated with Cc1c(-c2ccc(O)cc2)n(Cc2ccc(OCCN3CCCCC3)cc2)c2ccc(O)cc12 [Pipendoxifene] reads 5.07
